Assay: physchem
Conditions: 25 °C, pH 6.7, water
Structures can show the parent of a compound that is named as a salt.
quantity: solubility (mg/mL)
The reply should be a number in mg/mL, with the unit left off.

Give the reported solubility for this compound. C#CCN[C@@H]1CCc2ccccc21 [rasagiline mesylate]
92

====

Assay: physchem
Settings: 25 °C, pH 3.3, water
Where a name gives a salt, the structure may show the parent alone.
quantity: solubility
Answers without a unit are incomplete; give the number and then its unit.

For C#CCN[C@@H]1CCc2ccccc21 [rasagiline mesylate] , write its solubility.
570 mg/mL
